This collection of values is drawn from the supplement of paper PMC10567573.

Provide the recorded protein stability index for the entries that follow.
B1: WEE1 (parent)
chain: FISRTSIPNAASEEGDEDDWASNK

Variants of: B1
Assay Explanation: protein stability index of a GFP-peptide fusion (GPS, HEK-293T) (PSI 1-6); higher = more stable;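 further: lentivirally expressed fusions sorted by FACS into six bins by GFP to DsRed ratio, PSI derived from sequencing read proportions per bin multiplied by bin number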
Protocol Conditions: c terminus: a fixed tail appended
# print the numeric value only

In plain terms, "FISRTSIPNAASEEGDEDDWYSNK" has a documented protein stability index of 3.9

So, "FISRTSIPNAASEYGDEDDWASNK" ? Its protein stability index was 4.02

So, "FISLTSIPNAASEEGDEDDWASNK" ? Its protein stability index was 4.05
